Measured values drawn from patent US11485740B2 for this set.

ASSAYED TARGET: human TRPC6 (Homo sapiens)
Sequence (Q9Y210 whole entry): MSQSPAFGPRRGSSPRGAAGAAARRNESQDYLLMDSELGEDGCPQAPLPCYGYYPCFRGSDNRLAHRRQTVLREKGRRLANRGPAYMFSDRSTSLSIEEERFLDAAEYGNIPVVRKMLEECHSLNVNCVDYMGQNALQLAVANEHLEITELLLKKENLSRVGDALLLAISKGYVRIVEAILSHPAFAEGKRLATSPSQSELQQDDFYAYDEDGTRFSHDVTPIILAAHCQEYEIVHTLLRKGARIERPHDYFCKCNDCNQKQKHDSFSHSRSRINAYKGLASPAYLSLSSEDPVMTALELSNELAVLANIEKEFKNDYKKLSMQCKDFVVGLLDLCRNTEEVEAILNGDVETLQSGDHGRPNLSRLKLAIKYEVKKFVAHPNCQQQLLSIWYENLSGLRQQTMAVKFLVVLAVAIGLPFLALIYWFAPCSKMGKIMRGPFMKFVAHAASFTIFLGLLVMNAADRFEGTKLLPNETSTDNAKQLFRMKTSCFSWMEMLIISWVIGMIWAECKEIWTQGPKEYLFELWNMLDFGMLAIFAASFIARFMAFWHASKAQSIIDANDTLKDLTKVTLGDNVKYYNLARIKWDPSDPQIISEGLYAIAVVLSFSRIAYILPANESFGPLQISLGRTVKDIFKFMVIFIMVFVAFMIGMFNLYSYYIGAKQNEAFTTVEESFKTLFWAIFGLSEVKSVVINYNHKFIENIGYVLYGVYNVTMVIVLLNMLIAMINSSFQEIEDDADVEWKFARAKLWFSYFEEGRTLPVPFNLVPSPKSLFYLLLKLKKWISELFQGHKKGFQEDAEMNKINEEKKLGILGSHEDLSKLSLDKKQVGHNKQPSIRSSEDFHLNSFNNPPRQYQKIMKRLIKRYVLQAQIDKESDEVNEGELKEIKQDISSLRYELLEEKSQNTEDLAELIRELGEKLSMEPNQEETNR
EXPERIMENT: High throughput screening assay: Fluo4/AM calcium fluorescence in HEK293/TREx cells expressing human TRPC6, agonist GSK1702934A (single concentration 10 μM and IC50 curves)
STUDY CONDITIONS: antagonist effect against human TRPC6, 7 concentrations 20 μM to 0.027 μM, triplicate
TEST READOUT: log10 of IC50 (log10 of the value in nM)

compound_structure=COc1cc(C(=O)N2CCC(c3ccc(N)nn3)CC2)ncc1-c1ccc(OC2CCCC2)cc1 assayed_target="human TRPC6 (Homo sapiens)" test_readout="log10 of IC50" observed_value=1.84
compound_structure=COc1cc(-c2cnc(C(=O)N3CCC(c4ccc(N)nn4)CC3)cc2OC)ccc1OC(F)(F)F assayed_target="human TRPC6 (Homo sapiens)" test_readout="log10 of IC50" observed_value=1.94
compound_structure=COc1cc(C(=O)N2CCC(c3ccc(N)nn3)CC2)ncc1-c1ccc(OC(F)(F)F)nc1 assayed_target="human TRPC6 (Homo sapiens)" test_readout="log10 of IC50" observed_value=2.11
compound_structure=COc1cc(C(=O)N2CCC(c3ccc(N)nn3)CC2)ncc1-c1ccc(C(F)(F)F)nc1 assayed_target="human TRPC6 (Homo sapiens)" test_readout="log10 of IC50" observed_value=2.85
compound_structure=COc1nc(C(=O)N2CCC(c3ccc(N)nn3)CC2)ccc1-c1ccc(C(F)(F)F)cc1 assayed_target="human TRPC6 (Homo sapiens)" test_readout="log10 of IC50" observed_value=3.11
compound_structure=COc1cc(C(=O)N2CCC(c3ccc(N)nn3)CC2)ncc1-c1ccc(F)c(F)c1 assayed_target="human TRPC6 (Homo sapiens)" test_readout="log10 of IC50" observed_value=1.79
compound_structure=COc1cc(C(=O)N2CCC(c3ccc(N)nn3)CC2)ncc1-c1cnc(OCC(F)(F)F)nc1 assayed_target="human TRPC6 (Homo sapiens)" test_readout="log10 of IC50" observed_value=2.92
compound_structure=COc1cc(C(=O)N2CCN(c3cnc(N)cc3OC)C[C@H]2CO)ncc1-c1ccc(F)cc1 assayed_target="human TRPC6 (Homo sapiens)" test_readout="log10 of IC50" observed_value=2.92
compound_structure=CC[C@H](C)Oc1ccc(-c2ccc(C(=O)N3CCC(c4ccc(N)nn4)CC3)cc2OC)cn1 assayed_target="human TRPC6 (Homo sapiens)" test_readout="log10 of IC50" observed_value=1.96
compound_structure=CC[C@@H](C)Oc1ccc(-c2ccc(C(=O)N3CCC(c4ccc(N)nn4)CC3)cc2OC)cn1 assayed_target="human TRPC6 (Homo sapiens)" test_readout="log10 of IC50" observed_value=2.15
compound_structure=CCc1cc(C(=O)N2CCC(c3ccc(N)nn3)CC2)ccc1-c1ccc(C(F)(F)F)cc1 assayed_target="human TRPC6 (Homo sapiens)" test_readout="log10 of IC50" observed_value=3.15
compound_structure=COc1cc(C(=O)N2CCC(c3ccc(N)nn3)CC2)ncc1-c1ccc(OCC2CC2)cc1 assayed_target="human TRPC6 (Homo sapiens)" test_readout="log10 of IC50" observed_value=1.88
